Assay: Bioavailability in rat
Assay type: ADME, organism-based
Details: in vivo
endpoint: bioavailability (%)
Response body: numeric value in %, unit text excluded.

Sample COc1ccc([C@H](CC(=O)O)N2CCN(CCCc3ccc4c(n3)N[C@@H](C)CC4)C2=O)cn1 ; bioavailability observed: 50

* * *

Assay: Clearance value in dog
Type: ADME, organism-based, Canis lupus familiaris
Conditions: in vivo
endpoint: clearance (mL/min/kg)
Response body: numeric value in mL/min/kg, unit text excluded.

Sample COc1ccc([C@H](CC(=O)O)N2CCN(CCCc3ccc4c(n3)NCCC4)C2=O)cn1 ; clearance observed: 6.4

* * *

Test: Bioavailability in dog
Type: ADME, organism-based, Canis lupus familiaris
Settings: in vivo
// reported bioavailability per item
Response body: numeric value in %, unit text excluded.

INSERT INTO results (smiles_code, endpoint, measure_unit, value_reported) VALUES
  ('COc1ccc([C@H](CC(=O)O)N2CCN(CCCc3ccc4c(n3)N[C@@H](C)CC4)C2=O)cn1', 'bioavailability', '%', 83);

# context switch: different compound, same bioavailability
Sample COc1ccc([C@H](CC(=O)O)N2CCN(CCCc3nc4c(cc3C)CCCN4)C2=O)cn1 ; bioavailability observed: 55

* * *

Assay: Plasma clearance in rhesus monkey
Assay type: ADME, organism-based
Conditions: cercopithecidae, in vivo
endpoint: clearance (mL/min/kg)
Response body: numeric value in mL/min/kg, unit text excluded.

Sample COc1ccc([C@H](CC(=O)O)N2CCN(CCCc3ccc4c(n3)N[C@@H](C)CC4)C2=O)cn1 ; clearance observed: 3.5

* * *

Assay: Bioavailability in rhesus monkey
Format: ADME, organism-based
Details: in vivo
endpoint: bioavailability (%)
Response body: numeric value in %, unit text excluded.

Sample COc1ccc([C@H](CC(=O)O)N2CCN(CCCc3ccc4c(n3)NCCC4)C2=O)cn1 ; bioavailability observed: 74

* * *

Test: Half life in dog
Type: ADME, Canis lupus familiaris
Conditions: in vivo
endpoint: half-life (h)
Response body: numeric value in h, unit text excluded.

Sample COc1ccc([C@H](CC(=O)O)N2CCN(CCCc3nc4c(cc3C)CCCN4)C2=O)cn1 ; half-life observed: 2.2

* * *

Test: Partition coefficient (logP)
Type: physicochemical
Conditions: octanol/water
endpoint: logP
# respond with the number and nothing more

INSERT INTO assay_data (smiles_code, endpoint, value_reported) VALUES
  ('COc1ccc([C@H](CC(=O)O)N2CCN(CCCc3nc4c(cc3C)CCCN4)C2=O)cn1', 'logP', 0.62),
  ('COc1ccc([C@H](CC(=O)O)N2CCN(CCCc3ccc4c(n3)N[C@H](C)CC4)C2=O)cn1', 'logP', 0.56);

# context switch: different compound, same logP
Sample COc1ccc([C@H](CC(=O)O)N2CCN(CCCc3ccc4c(n3)N[C@@H](C)CC4)C2=O)cn1 ; logP observed: 0.69

* * *

Target: Integrin alpha-V/beta-3 (Homo sapiens) (UniProt P05106+P06756)
Assay: In vitro binding affinity against integrin Alpha-v Beta3 receptor in SPA assay
Type: protein-complex assay
endpoint: SPAV3 (nM)
Response body: numeric value in nM, unit text excluded.

Some solved cases for reference:
INSERT INTO results (smiles_code, endpoint, value_reported) VALUES
  ('COc1ccc([C@H](CC(=O)O)N2CCN(CCCc3ccc4c(n3)N[C@H](C)CC4)C2=O)cn1', 'SPAV3', 0.11),
  ('COc1ccc([C@H](CC(=O)O)N2CCN(CCCc3ccc4c(n3)NCCC4)C2=O)cn1', 'SPAV3', 0.08);

Sample COc1ccc([C@H](CC(=O)O)N2CCN(CCCc3nc4c(cc3C)CCCN4)C2=O)cn1 ; SPAV3 observed: 0.13

Sample COc1ccc([C@H](CC(=O)O)N2CCN(CCCc3ccc4c(n3)N[C@@H](C)CC4)C2=O)cn1 ; SPAV3 observed: 0.11

* * *

Test: Bioavailability in rhesus Monkey
Format: ADME, organism-based, Macaca mulatta
Conditions: in vivo
endpoint: bioavailability (%)
Response body: numeric value in %, unit text excluded.

Sample COc1ccc([C@H](CC(=O)O)N2CCN(CCCc3ccc4c(n3)N[C@@H](C)CC4)C2=O)cn1 ; bioavailability observed: 75

The reported measurements were obtained from ChEMBL document CHEMBL1137032.
